# assayed-target: UniProtKB Q13163
# Sequence (Q13163 whole entry, looked up): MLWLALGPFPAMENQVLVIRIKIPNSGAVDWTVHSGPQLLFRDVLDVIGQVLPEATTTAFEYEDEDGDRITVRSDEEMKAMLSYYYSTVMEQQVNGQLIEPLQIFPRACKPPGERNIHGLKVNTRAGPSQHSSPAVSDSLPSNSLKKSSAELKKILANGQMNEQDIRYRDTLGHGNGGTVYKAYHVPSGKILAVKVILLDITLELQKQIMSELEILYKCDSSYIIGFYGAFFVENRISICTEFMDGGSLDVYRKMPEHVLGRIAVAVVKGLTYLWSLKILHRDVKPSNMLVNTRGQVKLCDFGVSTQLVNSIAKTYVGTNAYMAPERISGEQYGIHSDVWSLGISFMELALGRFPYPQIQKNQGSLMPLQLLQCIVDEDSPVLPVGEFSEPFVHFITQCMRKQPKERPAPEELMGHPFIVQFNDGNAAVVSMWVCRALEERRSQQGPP
# assay-details: KINOMEscan competition binding
# applied-conditions: compound 10.0 µM
quantity-measured: kinase still bound, per cent of control (%)
Could you give me the number in %? Just the number is fine.

Answered examples (3):
- smiles-notation: "COc1cc(N2CCN(C)CC2)ccc1Nc1nc(N)c(C(=O)c2c(Cl)cccc2Cl)s1"
  value-unit: "%"
  kinase still bound, per cent of control: 100
- smiles-notation: "CCC(=O)N1CCN(c2ccc(-n3c(=O)ccc4cnc5ccc(-c6cnc7ccccc7c6)cc5c43)cc2C(F)(F)F)CC1"
  value-unit: "%"
  kinase still bound, per cent of control: 100
- smiles-notation: "O=C(O)c1ccc(Nc2ncc3c(n2)-c2ccc(Cl)cc2C(c2c(F)cccc2F)=NC3)cc1"
  value-unit: "%"
  kinase still bound, per cent of control: 80

Hello, please tell me recorded kinase still bound, per cent of control for this one: CN(C)C/C=C/C(=O)Nc1cccc(Nc2ncc3c(n2)N(C)c2ccccc2C(=O)N3C)c1
45

###

Measured kinase still bound, per cent of control by item
# assayed-target: TAOK1 (human) (UniProt Q7L7X3)
# Sequence (Q7L7X3 whole entry, looked up): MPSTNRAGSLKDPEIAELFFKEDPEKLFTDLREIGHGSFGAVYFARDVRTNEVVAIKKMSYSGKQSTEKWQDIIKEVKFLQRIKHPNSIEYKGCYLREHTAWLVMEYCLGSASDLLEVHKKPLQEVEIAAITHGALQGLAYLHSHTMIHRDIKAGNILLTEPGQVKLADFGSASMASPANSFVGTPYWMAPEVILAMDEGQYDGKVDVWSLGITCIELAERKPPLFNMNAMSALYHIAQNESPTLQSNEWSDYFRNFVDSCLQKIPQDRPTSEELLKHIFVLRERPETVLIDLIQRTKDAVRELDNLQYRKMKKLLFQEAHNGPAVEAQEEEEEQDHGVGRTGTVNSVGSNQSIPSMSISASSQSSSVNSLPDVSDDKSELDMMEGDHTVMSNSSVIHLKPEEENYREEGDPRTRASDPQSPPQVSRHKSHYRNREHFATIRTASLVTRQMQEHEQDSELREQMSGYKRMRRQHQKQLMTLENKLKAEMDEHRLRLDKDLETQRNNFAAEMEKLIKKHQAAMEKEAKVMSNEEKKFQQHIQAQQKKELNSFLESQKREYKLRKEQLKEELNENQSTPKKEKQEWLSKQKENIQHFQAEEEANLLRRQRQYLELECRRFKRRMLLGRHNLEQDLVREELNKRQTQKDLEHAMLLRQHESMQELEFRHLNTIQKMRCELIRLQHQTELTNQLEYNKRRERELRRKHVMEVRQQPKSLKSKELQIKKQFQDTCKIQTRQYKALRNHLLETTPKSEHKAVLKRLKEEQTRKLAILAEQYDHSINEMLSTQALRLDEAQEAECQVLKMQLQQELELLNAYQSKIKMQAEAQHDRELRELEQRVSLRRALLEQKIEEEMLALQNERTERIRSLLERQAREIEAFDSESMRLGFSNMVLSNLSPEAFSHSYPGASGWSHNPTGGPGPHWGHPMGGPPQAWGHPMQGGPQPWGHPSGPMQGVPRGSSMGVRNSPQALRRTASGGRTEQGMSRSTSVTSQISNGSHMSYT
# assay-details: KINOMEscan competition binding
# applied-conditions: compound 10.0 µM
Could you give me the number in %? Just the number is fine.

Answered examples (6):
- smiles-notation: "CN(C)C/C=C/C(=O)Nc1cccc(Nc2ncc3c(n2)N(C)c2ccccc2C(=O)N3C)c1"
  assayed-target: "TAOK1 (human) (UniProt Q7L7X3)"
  value-unit: "%"
  kinase still bound, per cent of control: 0.15
- smiles-notation: "O=C(NOC[C@H](O)CO)c1ccc(F)c(F)c1Nc1ccc(I)cc1F"
  assayed-target: "TAOK1 (human) (UniProt Q7L7X3)"
  value-unit: "%"
  kinase still bound, per cent of control: 100
- smiles-notation: "Cc1cc([C@@H](C)Nc2ccccc2C(=O)O)c2nc(N3CCOCC3)cc(=O)n2c1"
  assayed-target: "TAOK1 (human) (UniProt Q7L7X3)"
  value-unit: "%"
  kinase still bound, per cent of control: 59
- smiles-notation: "C=CC(=O)Nc1cccc(Oc2nc(Nc3ccc(N4CCN(C)CC4)cc3OC)ncc2Cl)c1"
  assayed-target: "TAOK1 (human) (UniProt Q7L7X3)"
  value-unit: "%"
  kinase still bound, per cent of control: 100
- smiles-notation: "Cc1ccc(NC(=O)c2cccc(C(C)(C)C#N)c2)cc1Nc1ccc2ncn(C)c(=O)c2c1"
  assayed-target: "TAOK1 (human) (UniProt Q7L7X3)"
  value-unit: "%"
  kinase still bound, per cent of control: 91
- smiles-notation: "N#Cc1c(NC(=O)c2cccc3ccccc23)sc2c1CCCC2"
  assayed-target: "TAOK1 (human) (UniProt Q7L7X3)"
  value-unit: "%"
  kinase still bound, per cent of control: 100

Now, please, on to the next compound.
Output reported kinase still bound, per cent of control of the compound CCCS(=O)(=O)Nc1ccc(F)c(C(=O)c2c[nH]c3ncc(-c4ccc(Cl)cc4)cc23)c1F on TAOK1 (human) (UniProt Q7L7X3).
72

###

# assayed-target: ICK (human)
# assay-details: KINOMEscan competition binding
# applied-conditions: compound 10.0 µM
quantity-measured: kinase still bound, per cent of control (%)
Could you give me the number in %? Just the number is fine.

Hello, please tell me recorded kinase still bound, per cent of control for this one: Cc1ccc2nc(NCCN)c3ncc(C)n3c2c1
100
